Reference for the values: ChEMBL document CHEMBL1201862

test system: NCI-H460; assay: NCI tumour cell line growth inhibition, 48 h
Active and inactive are the calls of the source. No stated cut-off is given here; in the data, active = GI50 up to about 1.1 µM and inactive = higher.
Entry note: the call must match one of Yes (active), No (inactive)

Past entries and their recorded results:
molecule | class name
Cc1ccc(SCC(OCn2cnc3c(N)ncnc32)[C@H](C)F)cc1 (some centres not stated) | No
CCOC(=O)N/N=C(/N)c1cccc([N+](=O)[O-])c1 | No
Clc1cccc2[nH]ncc12 | No

Just curious, what result did CNC(=O)Nc1cc2c3c(c1)CCCN3CCC2 get here?
No

Also need Cc1nc2nn[nH]n2c(=O)c1CCO , thanks.
No

Do the same for CN(C)C(=S)/N=c1\ss/c(=N\C(=S)N(C)C)n1C1CCCCC1 please
Yes

And what about the molecule O=C(c1ccco1)N(C(=S)N1CCN(c2ccccc2)CC1)C1CCCCC1 ?
No

====

tested on: ACHN; assay: NCI tumour cell line growth inhibition, 48 h
Active and inactive are the calls of the source. Rule as the data show it: active = GI50 up to about 1.1 µM and inactive = higher.
Could you please pick one outcome from this set? active, inactive

compound | class name
Cc1cc2[nH]c3[nH]c(=O)[nH]c(=O)c3c2cc1C | inactive
C/C(=N\NC(N)=S)c1cc(C)c(C)cc1C | inactive
COc1cc2c(cn1)[nH]c1ccccc12 | inactive
NC(C(=O)O)C(N)C(=O)O (centres undefined) | inactive
Nc1ccc(-c2nc3ccccc3s2)cc1Br | inactive

Test call, this compound: CC[C@@]1(OC(=O)C(N)CCC(=O)O)C(=O)OCc2c1cc1n(c2=O)Cc2cc3ccccc3nc2-1 (some centres undefined)
active

Moving on to CCn1c(=O)ccc2ccc(N(CCO)CCO)nc21
inactive

Likewise for O[C@H]1[C@H](O)[C@H](O)CN2CCC[C@@H](O)[C@H]12 ?
inactive

Then what about the compound CN(Cc1c[n+]([O-])c2nc(N)nc(N)c2n1)c1ccc(C(=O)NC23CC4CC(CC(C4)C2)C3)cc1 ?
inactive

// next record Cc1cc2nc(C=C(C(F)(F)F)C(F)(F)F)oc2cc1C
inactive

Another compound to check: CC(=O)OC(CC1(C)C(C)CCC23COC(=O)C2=CCCC31)c1ccoc1 (centres undefined)
inactive

Also need O=C1C[C@H]2CCCN2[C@@H](c2ccccc2)C1 , thanks.
inactive

Would you mind doing N#CC1(C#N)C2CCCCC23OC(=N)C1(C#N)C(c1ccccc1)O3 (centres undefined) as well?
inactive

Similarly, Cn1cnc([N+](=O)[O-])c1Sc1nc(N)nc2c1ncn2Cc1ccccc1 ?
inactive

====

# GI50 values compiled below
tested on: Hs-578T; test: NCI tumour cell line growth inhibition, 48 h
The source made the active and inactive calls. No stated cut-off is given here; in the data, active = GI50 up to about 1.1 µM and inactive = higher.

Example molecules with recorded GI50:
molecule | assayed system | GI50
C/C(=C/C(=O)Nn1c(Cc2ccccc2)n[nH]c1=O)C(=O)O | Hs-578T | > 100 µM (inactive)
CCOC(=O)C1(C(=O)OCC)Nc2cccnc2N(C)N1 | Hs-578T | > 100 µM (inactive)
CN(C)c1cc2ccccc2oc1=O | Hs-578T | > 100 µM (inactive)

// returns reported GI50 for input O=[N+]([O-])c1ccc(O)c(/C=N/CC2CCCN3CCCCC23)c1 (configuration not stated)
16.9 µM (inactive)

And what about the molecule O=c1[nH]c(=O)n(C2CC(O)C(CO)O2)cc1I (configuration not stated) ?
> 100 µM (inactive)

Please give the result for S=C(Nc1ccc2c(c1)Cc1ccccc1-2)Nc1ccc2c(c1)Cc1ccccc1-2 too.
> 100 µM (inactive)

Okay, and CCc1c(Cl)nc(Cl)nc1Cl ?
1.13 µM (inactive)

====

system: OVCAR-8; assay: NCI tumour cell line growth inhibition, 48 h
Activity calls are given as the source filed them. Rule as the data show it: active = GI50 up to about 1.1 µM and inactive = higher.
// one of t = active, f = inactive, no free text

compound | class name
O=C1C=C2SC3C[C@@]24CC1(O)[N+]1=c2c4c(c(O)c4c2=C(C=N4)CC1)N3 | t

Lab log entry: CC(=O)OC1=CC2=CC[C@H]3[C@@H]4CCC(=O)[C@@]4(C)CC(=O)[C@]3(S)[C@@]2(C)CC1 — outcome as called in the assay?
f

Same read-out for Cc1ccc(S(=O)(=O)CNC(=O)C(O)(O)C(F)(F)F)cc1 ?
f

Next compound up: CCN(CC)c1ccc2cc(-c3csc(-c4ccc(N(C)C)cc4)n3)c(=O)oc2c1
f

Cool, now O=[N+]([O-])c1cccnc1-n1cnc2ccccc21
f

Repeat with N#CC1(Cc2ccccc2[N+](=O)[O-])c2ccccc2C2C(N1C(=O)c1ccccc1)C2(Cl)Cl (centres undefined)
f

Input O=[N+]([O-])c1ccc(/C(Cl)=C/c2ccc(/C=C(\Cl)c3ccc([N+](=O)[O-])cc3[N+](=O)[O-])cc2)c([N+](=O)[O-])c1
f

Note, next up: CSC(=Nc1nnc(-c2ccc([N+](=O)[O-])cc2)s1)SC
f

Okay, and CC(=O)OC1=C(CC(C)(C)C)C(=O)c2ccccc2C1=O ?
f

Then Nc1c2ccccc2nc2c(C(=O)Nc3ccc(S(N)(=O)=O)cc3)cccc12 ?
f

What do you get for O=C1C=CC2(O[C@H](c3ccccc3)[C@@H](c3ccccc3)O2)[C@H](Sc2ccccc2O)C1 ?
t

Also, CC(CNC(N)=O)NC(N)=O (centres undefined) please.
f

Request: C[C@H]1C(=O)c2c(cc(O)c(C3OC(CO)C(O)C(O)C3O)c2O)OC1c1ccc(O)c(O)c1 (some centres undefined)
f

Now give it for COc1cccc(C2CC(C)(O)Oc3cc4c(cc32)OCO4)c1O (centres undefined) too.
f

====

tested on: HCC 2998; assay: NCI tumour cell line growth inhibition, 48 h
Activity calls are given as the source filed them. No stated cut-off is given here; in the data, active = GI50 up to about 1.1 µM and inactive = higher.
Each entry below carries its reported GI50.

molecule | assayed system | GI50
O=c1c2ccccc2c(=O)c2c1c1[nH]c3ccccc3c1c1c(=O)c3ccccc3c(=O)c21 | HCC 2998 | > 100 µM (inactive)
CC(C)C(/C=C/c1ccc(Cl)c(Cl)c1)=N\NC(=O)N/N=C(/C=C/c1ccc(Cl)c(Cl)c1)C(C)C | HCC 2998 | > 100 µM (inactive)
CSC(=Nc1nnc(-c2ccc([N+](=O)[O-])cc2)s1)SC | HCC 2998 | > 79.6 µM (inactive)

State the recorded GI50 for this entry: O=C1OC(c2ccccc2)=N/C1=C/NC(CS)C(=O)O (configuration not stated)
> 100 µM (inactive)

Can you check CC(=O)OC1=CC2=CC[C@H]3[C@@H]4CCC(=O)[C@@]4(C)CC(=O)[C@]3(S)[C@@]2(C)CC1 next?
31.6 µM (inactive)

// same read-out, input: O=c1nc(N2CCN(c3ccccc3)CC2)ccn1C1OC(CO)C(O)C1O (configuration not stated)
35.9 µM (inactive)

Subsequent entry: CCOC(=O)N/N=C(/N)c1cccc([N+](=O)[O-])c1
> 100 µM (inactive)

Check O=C(Nc1cc(Cl)cc(Cl)c1)/C(Cc1nc2ccccc2nc1O)=N/NC(=O)c1ccncc1 too.
> 100 µM (inactive)

Would you mind doing O=C1Sc2cc3ccccc3cc2C(=O)Sc2cc3ccccc3cc21 as well?
21.3 µM (inactive)

====

test system: DMS-114; assay: NCI tumour cell line growth inhibition, 48 h
Calls of active or inactive are those of the source. No stated cut-off is given here; in the data, active = GI50 up to about 1.1 µM and inactive = higher.
Please state which outcome applies, choosing from yes (1) = active, no (0) = inactive

A selection of reference data follows.
compound | class name
C=C1CCCC2[C@](C)(CC3=C(O)C(=O)C=C(OC)C3=O)[C@@H](C)CC[C@]12C (stereo not given in full) | no (0)
COC1CC(C)C(OC)c2cc(O)cc(c2O)NC(=O)/C(C)=C/C=C\C(C)C(OC(N)=O)/C(C)=C\C(C)C1OC (stereo not given) | yes (1)
O=C1C(c2ccccc2)=C(O)c2cccc3cccc1c23 | no (0)
CN1C(=O)C(C)(C)C2(SC(C)(C)C2(C)C)N(C)C1=S (stereo not given) | no (0)
CC(C)(C)c1cc(C2c3cc4c(cc3OC(O)(CO)C2C(=O)O)OCO4)cc(C(C)(C)C)c1O.CC(C)(C)c1cc(C2c3cc4c(cc3OC3(O)COC(=O)C23)OCO4)cc(C(C)(C)C)c1O (stereo not given) | no (0)

What was the test verdict on O=C(Nc1ccc([N+](=O)[O-])cc1C(=O)O)c1ccc([N+](=O)[O-])cc1 ?
no (0)

Again, but for Cn1c2c(c3ccccc31)CCN(CCCN1CCN(c3ccccc3)CC1)C2=O
no (0)

Also C=C1CC(CC(=O)C(C)CC2CC(=C)C(=O)O2)OC1=O (stereo not given) ?
no (0)

Field entry: CC(C)N1CCOC(c2ccc(O)c(O)c2)C1 (stereo not given)
no (0)

What about O=C1NC(=O)C2C1c1[nH]c3ccccc3c1C1CCCC12 (stereo not given) ?
no (0)

====

system: HOP-92; experiment: NCI tumour cell line growth inhibition, 48 h
Active and inactive are the calls of the source. Rule as the data show it: active = GI50 up to about 1.1 µM and inactive = higher.
Hi there, use one of these labels in your reply, thanks! TRUE = active, FALSE = inactive

Before answering, review these 3 worked examples.
molecule | class name
COc1ccc2nc3ccc(OC)cc3c([S+]([O-])Cc3ccccc3)c2c1 (stereo unspecified) | FALSE
C1CSC2=C(S1)SC1=C(S2)SC(=C2SC3=C(SC4=C(SCCS4)S3)S2)S1 | FALSE
COc1ccc(NC(=O)/C(=C/c2ccc(N(CCC#N)CCC#N)cc2)NC(=O)c2cc([N+](=O)[O-])ccc2Cl)cc1 | FALSE

Write down the call the test reported for this molecule. Item: O=C(CC(=O)CC(O)(C(F)(F)F)C(F)(F)F)CC(O)(C(F)(F)F)C(F)(F)F
FALSE

Same thing, different molecule: CCCCNc1nc2ccccc2c2c1ncn2CC(C)C
FALSE

Do the same for NC(=O)N/N=C/c1ccccc1O please
FALSE

What do you have for O=C(NCc1ccccc1)c1cnc(Cl)cn1 ?
FALSE

Param item: CC1=CC(=O)/C(=C/NC(=S)C(N)=S)C(=O)O1
FALSE

Also need O=c1c2cc3c(=O)n4c(cc(-c5ccccc5)c5cc(Cl)ccc54)nc3cc2nc2cc(-c3ccccc3)c3cc(Cl)ccc3n12 , thanks.
FALSE

What about NC(=O)c1cccc(/N=c2\oc3ccc(Br)cc3cc2-c2nc3ccccc3[nH]2)c1 ?
FALSE

Try the molecule CCOC(=O)C1(C(=O)OCC)Nc2cccnc2N(C)N1
FALSE

Next up: Cc1nc(N)sc1C(=O)/C=C/c1ccc([N+](=O)[O-])cc1
FALSE

Record: CC(=O)Nc1c(C(=N)C#N)ncn1CCO
FALSE

Now try CCOCC(=O)N(C)c1cccc2c3c(n(C)c12)CCCCC3 .
FALSE

One more molecule: CCOP(=O)(CN1CCNCCN(CP(=O)(OCC)OCC)CC1)OCC
FALSE

Could you do the same for Cc1cccc(-c2nnc3s/c(=C\c4ccc5c(c4)OCO5)c(=O)n23)c1 , please?
FALSE

Same lookup for N#CC(C(=O)/C(=N/NC(=O)c1ccccc1O)C(C#N)c1ccc(Br)cc1)c1ccc(Br)cc1 (stereo unspecified) , please.
FALSE

Try the molecule CN(C)CCNCc1ccc2c(-c3ccccc3)nc3cc(Cl)c(Cl)cc3n12
FALSE
